# Measured on: Focal adhesion kinase 1 (Homo sapiens)
# Sequence (Q05397 2-1052 limits assumed): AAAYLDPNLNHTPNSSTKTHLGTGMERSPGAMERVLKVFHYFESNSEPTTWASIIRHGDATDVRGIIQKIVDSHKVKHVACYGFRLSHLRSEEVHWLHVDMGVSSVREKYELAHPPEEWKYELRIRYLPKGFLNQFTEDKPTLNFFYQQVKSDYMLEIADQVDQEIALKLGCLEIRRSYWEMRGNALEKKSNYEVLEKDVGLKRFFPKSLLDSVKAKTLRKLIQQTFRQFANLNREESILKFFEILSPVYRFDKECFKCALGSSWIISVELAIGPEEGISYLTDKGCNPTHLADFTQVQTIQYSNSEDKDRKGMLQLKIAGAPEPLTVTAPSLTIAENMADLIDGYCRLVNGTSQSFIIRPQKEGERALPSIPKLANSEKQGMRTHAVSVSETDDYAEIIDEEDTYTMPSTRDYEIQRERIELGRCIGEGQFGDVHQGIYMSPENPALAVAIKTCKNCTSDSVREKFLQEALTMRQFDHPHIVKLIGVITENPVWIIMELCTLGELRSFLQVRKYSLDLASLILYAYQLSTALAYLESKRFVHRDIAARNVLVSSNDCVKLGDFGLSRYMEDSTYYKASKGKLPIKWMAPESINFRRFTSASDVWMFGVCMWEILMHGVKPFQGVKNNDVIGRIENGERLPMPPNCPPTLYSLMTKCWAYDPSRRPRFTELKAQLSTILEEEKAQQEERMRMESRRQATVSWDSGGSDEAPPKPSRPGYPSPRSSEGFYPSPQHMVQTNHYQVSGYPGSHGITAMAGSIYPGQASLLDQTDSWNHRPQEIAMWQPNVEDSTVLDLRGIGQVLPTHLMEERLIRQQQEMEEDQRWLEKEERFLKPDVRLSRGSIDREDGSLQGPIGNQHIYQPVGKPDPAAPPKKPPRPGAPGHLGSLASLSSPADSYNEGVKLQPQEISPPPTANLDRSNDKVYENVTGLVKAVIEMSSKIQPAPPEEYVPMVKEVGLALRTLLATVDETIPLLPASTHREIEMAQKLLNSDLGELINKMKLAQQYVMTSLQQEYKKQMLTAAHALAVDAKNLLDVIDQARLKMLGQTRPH
# Assay: Inhibition of FAK (unknown origin) assessed as residual activity at 1 uM relative to control
Property label: Activity (%)

C=CC(=O)NCCC(=O)N1CCC(c2ccc(Nc3ncc(Cl)c(Nc4ccccc4C(=O)NC)n3)cc2)C1 (centres undefined)
0

[1] C=CC(=O)NCCCCC(=O)N1CCc2cc(Nc3ncc(Cl)c(Nc4ccccc4C(=O)NC)n3)ccc2C1
[2] C=CC(=O)NCC(=O)N1CCC(c2ccc(Nc3ncc(Cl)c(Nc4ccccc4C(=O)NC)n3)cc2)C1 (centres undefined)
[3] C=CC(=O)NCCCCC(=O)N1CCN(c2ccc(Nc3ncc(Cl)c(Nc4ccccc4C(=O)NC)n3)cc2)CC1
Query: Please list these compounds in decreasing order of Activity. Your reply should list the labels following the order given in the request.
Response: 3, 2, 1
